method-notes: Volume of distribution at steady state in male Wistar-Han rat at 1 mg/kg, iv
Format: ADME, organism-based
Set-up: dose 1 mg/kg, route intravenous
assay-setup: in vivo, read-out: Vdss
Where a SMILES comes first, the peptide text is derived from it. [ ]: non-standard residue; d: D form. NMeY = CN[C@@H](Cc1ccc(O)cc1)C(=O)O; dNMeL = CN[C@H](CC(C)C)C(=O)O; NMeK = CN[C@@H](CCCCN)C(=O)O; NMeS = CN[C@@H](CO)C(=O)O
# Vd listing for each entry below
Report only the number, with the unit L/kg understood.

CC(C)C[C@@H]1NC(=O)[C@H](Cc2ccc(O)cc2)N(C)C(=O)[C@H]2CCCN2C(=O)[C@H](CC(C)C)NC(=O)[C@H](CCCCN)N(C)C(=O)[C@@H](CC(C)C)N(C)C1=O (cyclo(L[dNMeL][NMeK]L[dP][NMeY])): 0.93

Moving on to another molecule below.
Consider CC(C)C[C@@H]1NC(=O)[C@H](Cc2ccc(O)cc2)N(C)C(=O)[C@H]2CCCN2C(=O)[C@H](CC(C)C)NC(=O)[C@H](CO)N(C)C(=O)[C@@H](CC(C)C)N(C)C1=O (cyclo(L[dNMeL][NMeS]L[dP][NMeY])) . Its measured Vd is 4.3

###

method-notes: Oral bioavailability in male Wistar-Han rat at 5 mg/kg
Assay type: ADME, organism-based
assay-setup: in vivo
Where a SMILES comes first, the peptide text is derived from it. [ ]: non-standard residue; d: D form. NMeY = CN[C@@H](Cc1ccc(O)cc1)C(=O)O; dNMeL = CN[C@H](CC(C)C)C(=O)O; NMeS = CN[C@@H](CO)C(=O)O
reported-metric: bioavailability
Note: state the figure and append the unit.

Consider CC(C)C[C@@H]1NC(=O)[C@H](Cc2ccc(O)cc2)N(C)C(=O)[C@H]2CCCN2C(=O)[C@H](CC(C)C)NC(=O)[C@H](CO)N(C)C(=O)[C@@H](CC(C)C)N(C)C1=O (cyclo(L[dNMeL][NMeS]L[dP][NMeY])) . Its measured bioavailability is 2.03%

###

method-notes: Tmax in male Wistar-Han rat at 10 mg/kg, po
Format: ADME, organism-based
Parameters: dose 10 mg/kg, route oral
assay-setup: in vivo
Where a SMILES comes first, the peptide text is derived from it. [ ]: non-standard residue; d: D form. NMeY = CN[C@@H](Cc1ccc(O)cc1)C(=O)O; NMeD = CN[C@@H](CC(=O)O)C(=O)O; dNMeL = CN[C@H](CC(C)C)C(=O)O; NMeK = CN[C@@H](CCCCN)C(=O)O
# Tmax listing for each entry below
Report only the number, with the unit h understood.

CC(C)C[C@@H]1NC(=O)[C@H](Cc2ccc(O)cc2)N(C)C(=O)[C@H]2CCCN2C(=O)[C@H](CC(C)C)NC(=O)[C@H](CCCCN)N(C)C(=O)[C@@H](CC(C)C)N(C)C1=O (cyclo(L[dNMeL][NMeK]L[dP][NMeY])): 1.56

Consider CC(C)C[C@@H]1NC(=O)[C@H](Cc2ccc(O)cc2)N(C)C(=O)[C@H]2CCCN2C(=O)[C@H](CC(C)C)NC(=O)[C@H](CC(=O)O)N(C)C(=O)[C@@H](CC(C)C)N(C)C1=O (cyclo(L[dNMeL][NMeD]L[dP][NMeY])) . Its measured Tmax is 0.78
